test system: SN12C renal; experiment: NCI tumour cell line growth inhibition, 48 h
Form field: TGI (one value per entry).
QUANTITY_KIND: TGI

| COMPOUND | TESTED_ON | QUANTITY_KIND | VALUE_MEASURED |
| --- | --- | --- | --- |
| c1ccc(C2SCc3nc4ccccc4n32)cc1 (stereo unspecified) | SN12C renal | TGI | > 100 µM |
| Nc1ncnc2c1ncn2Cc1ccc(CCl)cc1 | SN12C renal | TGI | 35.6 µM |
| Cc1cc(NCCCCCCCCNc2cc(C)nc3cc(N(C)C)ccc23)c2ccc(N(C)C)cc2n1 | SN12C renal | TGI | 21.5 µM |
| C=C1[C@H](O)C[C@@H](C(C)C(O)CC=C(C)C)[C@@H](O)[C@@H]2C(C)=CC[C@@H]12 (stereo partly specified) | SN12C renal | TGI | > 100 µM |
| Cc1cc2nc3c(C)c4ccccc4c(C)n3c2cc1C | SN12C renal | TGI | > 10 µM |
| N/C(=N/O)NOCCC(N)C(=O)O (stereo unspecified) | SN12C renal | TGI | > 100 µM |

* * *

test system: NCI-H522 lung; test: NCI tumour cell line growth inhibition, 48 h

| COMPOUND | TGI |
| --- | --- |
| CN(C)c1ccc(/C=C(\C#N)C(=O)c2ccccc2)cc1Br | > 100 µM |
| CCOP(=O)(OCC)C(Cc1cn(S(=O)(=O)c2ccc(C)cc2)cn1)C(=O)O (stereo unspecified) | > 100 µM |
| O=C1NC(=O)/C(=C/c2ccc3nccc(-c4ccncc4)c3c2)S1 | 1.81 µM |
| OCC1OC(NO)C(O)C(O)C1O (stereo unspecified) | > 100 µM |
| COc1ccc2c(c1)C(=O)CC(C(N)=O)C2 (stereo unspecified) | > 100 µM |
| Oc1ccccc1-c1cnnc(-c2ccccc2O)c1 | 41.3 µM |

* * *

system: HS 578T breast; assay: NCI tumour cell line growth inhibition, 48 h; in the data active = GI50 below about 0.43 µM; inactive = the rest
Outcome codes: active, inactive

| MOLECULE | TESTED_ON | DISCRETE_LABEL |
| --- | --- | --- |
| OCC1OC(n2cnc3cc(Cl)c(Cl)cc32)C(O)C1O (stereo not drawn) | HS 578T breast | inactive |
| Nc1nc(N)c2c(n1)NC(c1ccc(Cl)cc1)C1CCc3ccccc3C1=N2 (stereo not drawn) | HS 578T breast | inactive |
| O=C(O)[C@@H](Cc1ccccc1)NS(=O)(=O)c1ccc(-c2ccccc2)cc1 | HS 578T breast | inactive |
| COc1cc(/C=C/[N+](=O)[O-])cc(OC)c1 | HS 578T breast | inactive |
| COC1C[C@H](O[C@@H]2C[C@H](O[C@@H]3C[C@H](O[C@@H]4C(=O)c5c(cc6cc(O[C@H]7C[C@@H](O[C@H]8C[C@@H](O)[C@H](O)C(C)O8)[C@H](O)C(C)O7)c(C)c(O)c6c5O)C[C@H]4C(OC)C(=O)[C@@H](O)[C@@H](C)O)OC(C)[C@H]3O)OC(C)[C@@H]2O)OC(C)[C@@H]1O (stereo partly drawn) | HS 578T breast | active |
| C=C1C(=O)O[C@H]2[C@H]1CC/C(COC(=O)NCCc1ccc(Br)cc1)=C\CC[C@@]1(C)O[C@@H]21 | HS 578T breast | inactive |
| O=C(Nc1cccc(Cl)c1)Nc1cc(C(F)(F)F)ccc1Cl | HS 578T breast | inactive |
| CCN(Cc1c(F)cccc1C(F)(F)F)c1ccc(CO)c(Cl)c1 | HS 578T breast | inactive |
